Assay: Aqueous solubility of the compound in PBS at pH 7.4
Type: physicochemical
observable: solubility (µM)

{"molecule-smiles": "Cc1ccccc1C#Cc1ccc(CCC(=O)O)cc1", "solubility, µM": 174}
{"molecule-smiles": "O=C(O)CCc1ccc(C#Cc2cc(Cl)nc(Cl)c2)cc1", "solubility, µM": 199}

---

Target: CYP3A4 (Homo sapiens, UniProt P08684)
Sequence (P08684 whole entry): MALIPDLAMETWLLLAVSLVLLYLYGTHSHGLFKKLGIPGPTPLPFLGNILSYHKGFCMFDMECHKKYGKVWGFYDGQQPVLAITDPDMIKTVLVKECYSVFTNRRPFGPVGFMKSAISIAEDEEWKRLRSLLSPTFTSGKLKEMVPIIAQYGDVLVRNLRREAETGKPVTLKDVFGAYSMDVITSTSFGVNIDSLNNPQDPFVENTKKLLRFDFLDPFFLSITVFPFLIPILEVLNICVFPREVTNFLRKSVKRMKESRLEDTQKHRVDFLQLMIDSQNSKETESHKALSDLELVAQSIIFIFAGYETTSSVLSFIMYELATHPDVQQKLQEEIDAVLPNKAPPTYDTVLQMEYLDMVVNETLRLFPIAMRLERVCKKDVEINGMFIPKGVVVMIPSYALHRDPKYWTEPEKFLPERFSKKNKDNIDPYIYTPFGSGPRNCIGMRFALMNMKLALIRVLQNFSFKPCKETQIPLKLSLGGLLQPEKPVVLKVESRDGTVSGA
Experiment: Inhibition of CYP3A4 at 10 uM
Format: ADME
observable: inhibition at 10 µM (%)

(1) O=C(O)CCc1ccc(C#Cc2cc(Cl)nc(Cl)c2)cc1
(2) Cc1ccccc1C#Cc1ccc(CCC(=O)O)cc1
**Q:** Returns the identifier with the smallest measured inhibition at 10 µM among 1 and 2 . Respond with the label that goes with your answer.
**A:** 2
(2: -4%, 1: 5%)

---

Target: Free fatty acid receptor 1 (Homo sapiens, UniProt O14842)
Sequence (O14842 whole entry): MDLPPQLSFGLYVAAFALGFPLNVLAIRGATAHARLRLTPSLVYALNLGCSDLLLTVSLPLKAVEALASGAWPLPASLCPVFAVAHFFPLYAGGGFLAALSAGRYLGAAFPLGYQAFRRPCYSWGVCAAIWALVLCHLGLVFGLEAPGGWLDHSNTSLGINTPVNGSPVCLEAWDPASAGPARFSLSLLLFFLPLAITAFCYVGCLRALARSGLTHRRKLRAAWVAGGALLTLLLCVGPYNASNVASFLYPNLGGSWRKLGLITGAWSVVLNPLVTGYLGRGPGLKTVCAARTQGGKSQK
Test: Agonist activity at human FFA1 receptor expressed in human 1321N1 cells assessed as calcium mobilization by fluorescence spectrophotometry relative to 10 uM TUG-20
Type: functional, cell-based
observable: Efficacy (%)

{"molecule": "O=C(O)CCc1ccc(C#Cc2ccnc(Oc3ccccc3)c2)cc1", "observed-measurement": 94}
{"molecule": "Cc1cnc(F)c(C#Cc2ccc(CCC(=O)O)cc2)c1", "observed-measurement": 98}
{"molecule": "O=C(O)CCc1ccc(C#Cc2cccs2)cc1", "observed-measurement": 97}
{"molecule": "O=C(O)CCc1ccc(C#Cc2ccncc2)cc1", "observed-measurement": 100}
{"molecule": "Cc1cnc(F)cc1C#Cc1ccc(CCC(=O)O)cc1", "observed-measurement": 99}
{"molecule": "O=C(O)CCc1ccc(C#Cc2ccnc(F)c2)cc1", "observed-measurement": 98}
{"molecule": "Cc1cnc(Cl)nc1C#Cc1ccc(CCC(=O)O)cc1", "observed-measurement": 121}
{"molecule": "O=C(O)CCc1ccc(C#Cc2ccnc(Cl)c2)cc1", "observed-measurement": 94}
{"molecule": "O=C(O)CCc1ccc(C#Cc2ccnc(-c3ccccc3)c2)cc1", "observed-measurement": 97}
{"molecule": "O=C(O)C1CC1c1ccc(C#Cc2cc(Cl)nc(Cl)c2)cc1 (racemic)", "observed-measurement": 96}
{"molecule": "O=C(O)CCc1ccc(C#Cc2cccnc2Cl)cc1", "observed-measurement": 91}
{"molecule": "O=C(O)CCc1ccc(C#Cc2ccnc3cc(Cl)ccc23)cc1", "observed-measurement": 125}

---

Biological target: Free fatty acid receptor 1 (Homo sapiens, UniProt O14842)
Test: Agonist activity at human FFA1 receptor expressed in human 1321N1 cells assessed as calcium mobilization by fluorescence spectrophotometry relative to 10 uM TUG-20
Assay type: functional, cell-based
observable: Efficacy (%)

Solved entries (count: 5):
{"molecule-smiles": "O=C(O)CCc1ccc(C#Cc2cncs2)cc1", "Efficacy, %": 99}
{"molecule-smiles": "O=C(O)CCc1ccc(C#Cc2cc(Cl)nc(Cl)c2)cc1", "Efficacy, %": 103}
{"molecule-smiles": "O=C(O)CCc1ccc(C#Cc2ncccc2[N+](=O)[O-])cc1", "Efficacy, %": 87}
{"molecule-smiles": "Cc1c(C#Cc2ccc(CCC(=O)O)cc2)ccnc1Cl", "Efficacy, %": 101}
{"molecule-smiles": "O=C(O)CCc1ccc(C#Cc2ccccn2)cc1", "Efficacy, %": 98}

(I) O=C(O)CCc1ccc(C#Cc2ccnc(Cl)n2)cc1
(II) Cc1c(C#Cc2ccc(CCC(=O)O)cc2)cc(Cl)nc1Cl
**Q:** // task: argmin of Efficacy over [ I , II ] Mark your selection by writing its label.
**A:** II
(II: 91%, I: 131%)
